system_tested: Torsin-1A-interacting protein 1 (Homo sapiens)
run_description: compound microarray binding of lysate hLAP1 – cell lysate, small-molecule microarray, COS7 lysate, 635/667 nm fluorescence, primary screen (AID 1116)
setup_conditions: 635 nm fluorescence, higher = more signal
Label scheme for composite z-score: LOW (below 0.1), MEDIUM (0.1 to below 0.5), HIGH (0.5 or more)

q: For the record Cc1ccc(C(C)CC(O)C2C=CC3C(=O)N(c4ccccc4)C(=O)C3N2Nc2ccccc2)o1 (centres undefined) , report the class its composite z-score corresponds to.
a: HIGH

q: For the record "O=C1C[C@]2(c3ccc([N+](=O)[O-])cc3)C(=O)N(C3CC3)c3cc(CO)ccc3[C@H]2N1CC12CC3CC(CC(C3)C1)C2" , report the class its composite z-score corresponds to.
a: LOW

q: For the record CC(CO)N1C(=O)[C@]2(C)C3C(=O)OCCC/C=C\[C@H]3OC23C=CCN(c2ccc(Cl)cc2)C(=O)[C@@H]13 (some centres undefined) , report the class its composite z-score corresponds to.
a: LOW

Next:
q: For the record O=C1NC(=O)C2C1C=CC(C(O)c1ccco1)N2Nc1ccc(Cl)cc1Cl (centres undefined) , report the class its composite z-score corresponds to.
a: MEDIUM

q: For the record CC(C)(C)OC(=O)CC[C@@]1(C(=O)NCC(O)CO)N=C(c2ccc(OCCCO)cc2)O[C@@H]1c1ccccc1CN=[N+]=[N-] (some centres undefined) , report the class its composite z-score corresponds to.
a: HIGH

q: For the record "C[N+](C)(C)CCCCCCNC(=O)[C@@H]1C[C@@H]2C(=O)N3CCC[C@H]3C(=O)N2[C@@H]1c1ccc(O)cc1" , report the class its composite z-score corresponds to.
a: HIGH

q: For the record Cc1ccccc1C(O)C1C=CC2C(=O)NC(=O)C2N1Nc1ccccn1 (centres undefined) , report the class its composite z-score corresponds to.
a: HIGH

q: For the record COc1cc2c(cc1O)C(c1cccs1)N(Cc1cc3c(cc1Br)OCO3)CC2 (centres undefined) , report the class its composite z-score corresponds to.
a: HIGH

q: For the record "COc1ccccc1CN1C(=O)c2ccccc2[C@](Cc2ccccc2I)(C(=O)O)[C@@H]1c1ccc(CO)cc1" , report the class its composite z-score corresponds to.
a: MEDIUM

q: For the record CCCCCC1=C2CNC(C)(C(=O)OC)C=C2C(C)C1=O (centres undefined) , report the class its composite z-score corresponds to.
a: MEDIUM

q: For the record "CO[C@H]1O[C@H](CO)[C@@H](OC(=O)CCc2ccccc2)[C@@H]2OC(=O)[C@@H](Cc3ccccc3)C/C=C/C[C@H](Cc3ccccc3)C(=O)O[C@@H]12" , report the class its composite z-score corresponds to.
a: LOW
